The values you see were collected from paper PMC11249646.

TARGET_OR_SYSTEM: CIB1 and αIIb interaction (CIB1-GST : F-αIIb peptide) (Homo sapiens, UniProt Q99828)
Construct: made in house; host or cells: BL-21 plus RIL cells (E. coli)
Sequence (Q99828 1-191): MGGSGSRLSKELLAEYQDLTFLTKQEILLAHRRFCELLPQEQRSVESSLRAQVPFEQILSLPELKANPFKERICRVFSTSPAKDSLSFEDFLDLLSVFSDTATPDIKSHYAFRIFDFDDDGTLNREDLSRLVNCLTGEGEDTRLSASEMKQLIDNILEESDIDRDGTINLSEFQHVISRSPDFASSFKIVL
TEST_SUMMARY: FP assay, 1536-well qHTS format (primary and confirmatory screen)
Type: binding
CONDITION_DESCRIPTION: Table S3, confirmatory screen, qHTS curve class; a negative sign marks inhibitory curves
PARAMETER_MEASURED: Curve Class (confirmatory screen)
Number only, please.

Could you tell me which Curve Class (confirmatory screen) is on file for O=C(NC1=CC(=O)[C@H]2O[C@H]2C1=O)c1ccccc1O ?
-2.4

Next compound up: CNc1oc(-c2c[nH]c3ccccc23)nc1C#N.O=C(O)C(F)(F)F
-3

Moving on to the next compound: O=C(NC(c1ccco1)c1cc(Cl)c2cccnc2c1O)c1cccs1.O=C(O)C(F)(F)F (stereo not drawn)
4
